TESTED_TARGET: T1, Peptide E (mouse PAR-2), N-terminal biotinylated (Mouse (Mus musculus), N-terminal biotin via G4S linker)
T1 construct: also called Peptide E N-Term
T1 peptide: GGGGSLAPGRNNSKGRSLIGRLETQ
METHOD_DESCRIPTION: SPR, peptide immobilized
pKd: −log10 of the molar value.
VALUE_KIND: pKd

# BINDER, RELATION_SYMBOL, RECORDED_RESULT
rows = [
    ("H4H579P (antibody, human IgG4, V domains shown, also called H1H579P variable regions) VH: QVQLVESGGGVVQPGRSLRLSCVASGFTFSRYGMHWVRQAPGKGLEWLIVISYDGINKYYADSVKGRFTISRDNSKNTVYLQMNSLRAEDTGVYYCAKGDFWSGYFDYWGQGTLVTVSS VL: DIVMTQTPLSSPVTLGQPASISCRSSQSLVHSDGNTYLSWLHQRPGQPPRLLIYKISNRFSGVPDRFSGSGAGTDFTLQISRVEAEDVGIYYCMQGTQFPTFGGGTKVEIK", "=", 8.47),
    ("H4H581P (antibody, human IgG4, V domains shown, also called mAb H4H581P; H1H581P variable regions) VH: QVQLVESGGGVVQPGRSLRLSCVASGFTFSRYGIHWVRQAPGKGLEWVIVISYDGINKYYADSVKGRFTISRDNSKNTVYLQMNSLRAEDTAVYYCAKGDFWSGYFDYWGQGTLVTVSS VL: DIVMTQTPLSSPVTLGQPASISCRSSQSLVHSDGNTYLSWLHQRPGQPPRLLIYKISNRFSGVPDRFSGSGAGTDFTLQISRVEAEDVGIYYCMQATQFPTFGGGTKVEIK", "=", 8.95),
    ("H4H583P (antibody, human IgG4, V domains shown, also called H1H583P variable regions) VH: QVQLVESGGGVVQPGMSLRLSCTASGFTFRRYGMHWVRQAPGKGLEWVAVIWYDGSNKYYADSVKGRFTITRDNSKNTLYLQMNSLRAEDTAIYFCASEITIGDWFDPRGQGTLVTVSS VL: AIQMTQSPSSLSASVGDRVTITCRASQGIRNDLGWFQQKPGKVPKLLIYAASTLHSGVPSRFSGSGFGTDFTLTISSLQPEDFATYYCLQDFNYPLTFGGGTKVEIK", "=", 8.77),
    ("H4H585P (antibody, human IgG4, V domains shown, also called H1H585P variable regions) VH: QVQLVESGGGVVQPGRSLRLSCVASGFTFSRYGMHWVRQAPGKGLEWLIVISYDGINKYYADSVKGRFTISRDNSKNTVYLQMNSLRAEDTAVYYCAKGDFWSGYFDYWGQGTLVTVSS VL: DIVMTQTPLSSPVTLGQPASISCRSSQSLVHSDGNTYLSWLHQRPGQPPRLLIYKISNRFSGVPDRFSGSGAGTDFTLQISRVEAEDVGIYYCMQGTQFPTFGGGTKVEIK", "<", 7.00),
    ("H4H584P (antibody, human IgG4, V domains shown, also called H1H584P variable regions) VH: QVQLVESGGGVVQPGRSLRLSCVASGFTFSRYGMHWVRQAPGKGLEWVVVISYDGINKYYADSVKGRFTISRDNSKNTVYLQMNSLRAEDTAVYYCAKGDFWSGYFDYWGQGTLVTVSS VL: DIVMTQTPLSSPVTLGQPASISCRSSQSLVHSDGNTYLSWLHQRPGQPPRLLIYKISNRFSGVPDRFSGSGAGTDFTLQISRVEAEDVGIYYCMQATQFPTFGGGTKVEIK", "<", 7.00),
]
